Tested on: SK-OV-3
Test: Antiproliferative activity against human SK-OV-3 cells assessed as suppression ratio at 5 uM by enzyme-linked immunosorbent assay relative to control
Assay type: functional
Please respond with reported inhibition at 5 µM for every item in the list.
Lab book: enter the figure in %, no units written.

// field: inhibition at 5 µM; key: Cn1cnc([N+](=O)[O-])c1COP(=O)(NCCCl)NCCCl ; value = -38

// field: inhibition at 5 µM; key: CC(C)n1c(COP(=O)(NCCBr)NCCBr)cnc1[N+](=O)[O-] ; value = -15

// field: inhibition at 5 µM; key: CCCn1cnc([N+](=O)[O-])c1COP(=O)(NCCCl)NCCCl ; value = -5

// field: inhibition at 5 µM; key: CCCn1cc(COP(=O)(NCCBr)NCCBr)nc1[N+](=O)[O-] ; value = -32

// field: inhibition at 5 µM; key: CCCn1c(COP(=O)(NCCBr)NCCBr)cnc1[N+](=O)[O-] ; value = -2

// field: inhibition at 5 µM; key: CCn1cnc([N+](=O)[O-])c1COP(=O)(NCCCl)NCCCl ; value = -16

// field: inhibition at 5 µM; key: CCn1c(COP(=O)(NCCBr)NCCBr)cnc1[N+](=O)[O-] ; value = -13

// field: inhibition at 5 µM; key: CCn1cnc([N+](=O)[O-])c1COP(=O)(NCCBr)NCCBr ; value = -11

// field: inhibition at 5 µM; key: CC(C)n1cc(COP(=O)(NCCBr)NCCBr)nc1[N+](=O)[O-] ; value = -16

// field: inhibition at 5 µM; key: CC(C)n1cnc([N+](=O)[O-])c1COP(=O)(NCCBr)NCCBr ; value = 4

// field: inhibition at 5 µM; key: Cn1cnc([N+](=O)[O-])c1COP(=O)(NCCBr)NCCBr ; value = -4
